Experiment: Tissue distribution of PA and NAPA at steady state (Kp,ss)
Conditions: male, SD, rat, liver, intravenous, Kp,ss Liver, rats, PA HCl infusion, 60 min, control
quantity: Kp at 1 h
API doc: respond with a numeric literal and nothing else, no unit.

Problem: Which Kp at 1 h is listed for CCN(CC)CCNC(=O)c1ccc(NC(C)=O)cc1 [NAPA, N-acetylprocainamide] ?
Result: 17.8

* * *

Experiment: in vivo
Conditions: male, SD, rat, 10 mg/kg
quantity: concentration at 1 min (ng/mL)
Field: numeric (ng/mL). Do not append units.

Problem: # lookup: concentration at 1 min of CCN(CC)CCNC(=O)c1ccc(N)cc1 [PA, procainamide]
Result: 11000
